tested on: HOP-18 NSCLC; test: NCI tumour cell line growth inhibition, 48 h
Experimental endpoint: TGI

{"columns": ["Compound", "TGI"],
 "data": [
  ["O=c1c(O)c(-c2ccc(O)c(O)c2)oc2cc(O)ccc12", "52.2 µM"],
  ["CC(=O)CC(=O)N(CCN(C(=O)CC(C)=O)c1ccccc1)c1ccccc1", "> 100 µM"],
  ["CN(C)CCOc1cc2c(c3ccccc13)-c1ccccc1C2=O", "8.58 µM"],
  ["CCCC(OCC)(OCC)OCC", "> 100 µM"],
  ["CSc1ccc(-c2cn3ccsc3n2)c(O)c1", "> 100 µM"]
]}

Query: State its TGI for this compound: COC(=O)C1=CC(O)CCC1c1ccc(OC)cc1 (configuration not stated)
Response: > 100 µM

Query: State its TGI for this compound: Nn1c(CCCl)nc2c(Br)cc(Br)cc2c1=O
Response: > 100 µM

====

tested on: NCI-H460 lung
Pick one: active, inactive

Field: example entries. Status: answers known.
{"columns": ["Compound", "Class label"],
 "data": [
  ["COc1cc(N2CCC(N3CCN(C)CC3)CC2)ccc1Nc1ncc(Cl)c(Nc2ccccc2P(C)(C)=O)n1", "inactive"],
  ["CN(C)CC/C=C1\\c2ccccc2Sc2ccc(Cl)cc21", "inactive"],
  ["COC(=O)c1cccc(NC(=O)Nc2ccc3oc(=O)c4ccccc4c3c2)c1", "inactive"]
]}

Query: Outcome logged for CC(C)(Cl)CCC1=C(Cl)C(=O)c2ccccc2C1=O in this assay:
Response: inactive

Query: Outcome logged for COc1cccc(-c2nn(-c3ccccc3)cc2-c2ccnc(NCCNS(=O)(=O)c3ccc(C(F)(F)F)cc3)c2)c1 in this assay:
Response: inactive

Query: Outcome logged for C[C@H]1CCC/C=C/[C@@H]2C[C@H](O)C[C@H]2[C@H](O)[C@H](S(=O)c2ccc(O)cc2)CC(=O)O1 (some centres not stated) in this assay:
Response: active

Query: Outcome logged for CCCCCCN(CCCCCC)C(=N)c1ccnc2ccccc12 in this assay:
Response: inactive

====

tested on: OVCAR-3 ovarian; experiment: NCI tumour cell line growth inhibition, 48 h; in the data active means GI50 below about 0.43 µM; inactive means the rest
Pick one: yes for active, no for inactive

Field: example entries. Status: answers known.
{"columns": ["Compound", "Class label"],
 "data": [
  ["CCc1ccc(C2=C/C(=C/c3ccc(Cl)cc3)C(=O)N2CCc2ccc(S(N)(=O)=O)cc2)cc1", "no"],
  ["Nc1nc(N)c2nc(CNc3ccc(C(=O)CC(CCC(=O)O)C(=O)O)cc3)cnc2n1 (stereo not given)", "no"],
  ["COc1ccc(OC)c(/C=C/c2nnc(Nc3ccc(Cl)cc3)o2)c1", "no"],
  ["COc1ccc(C(=O)/C=C/c2cc3ccccc3[nH]c2=O)cc1", "no"],
  ["CN(C)CC/C=C1\\c2ccccc2Sc2ccc(Cl)cc21", "no"]
]}

Query: Outcome logged for CCCCCCCCCCCCCOC(=O)c1c(C)[nH]c(/C=C2\N=C(c3ccc[nH]3)C=C2OC)c1C in this assay:
Response: yes

Query: Outcome logged for CCN(Cc1ccc(F)cc1)c1ccc(CO)c(Cl)c1 in this assay:
Response: no

Query: Outcome logged for COc1cc2[nH]c(C(=O)c3cc(OC)c(OC)c(OC)c3)c(N)c2cc1C#CCO in this assay:
Response: yes

Query: Outcome logged for CCC1CCc2nc3sc(C(=O)Nc4ccccc4F)c(N)c3cc2C1 (stereo not given) in this assay:
Response: no

Query: Outcome logged for COc1cc(N2CCC(N3CCN(C)CC3)CC2)ccc1Nc1ncc(Cl)c(Nc2ccccc2P(C)(C)=O)n1 in this assay:
Response: no

Query: Outcome logged for C/C(=C\c1ccn(-c2ccc(N)c(C(F)(F)F)c2)n1)[C@@H]1C[C@@H]2O[C@]2(C)CCC[C@H](C)[C@H](O)[C@@H](C)C(=O)C(C)(C)[C@@H](O)CC(=O)O1 in this assay:
Response: yes

Query: Outcome logged for C#C[C@@]1(O)[C@@H](CO)O[C@@H](n2cc(Cl)c3c(N)ncnc32)[C@@H]1O in this assay:
Response: yes

Query: Outcome logged for COc1ccc(-c2coc3ncnc(N)c23)cc1 in this assay:
Response: no

Query: Outcome logged for O=c1oc2ccc(Cl)cc2c(=O)n1-c1ccc(Cl)cc1F in this assay:
Response: yes

Query: Outcome logged for COc1cccc(-c2nn(-c3ccccc3)cc2-c2ccnc(NCCNS(=O)(=O)c3ccc(C(F)(F)F)cc3)c2)c1 in this assay:
Response: no

Query: Outcome logged for CS(=O)(=O)CCNCc1ccc(-c2ccc3ncnc(Nc4ccc(OCc5ccccc5)c(C(F)(F)F)c4)c3c2)o1 in this assay:
Response: no

Query: Outcome logged for O=C1C(=O)c2cc([N+](=O)[O-])ccc2-c2ccccc21 in this assay:
Response: no
